system: M. tuberculosis H37Rv growth inhibition with meropenem; assay: dose response, H37Rv, with and without meropenem (AID 434987); conditions: measured here: IC90 with meropenem;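 note: growth over 7 days at 37 °C before Alamar Blue read on day 9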
Reported IC90 is given for each of the following compounds.

- COMPOUND: "O=C1C(Cl)=C(N2CCCCC2)C(=O)N1c1ccccc1"
  TARGET_DESC: "M. tuberculosis H37Rv growth inhibition with meropenem"
  IC90: "> 50 µM"
- COMPOUND: "COc1cc(CNc2ccc(NC(C)=O)cc2)ccc1OCc1ccccc1C"
  TARGET_DESC: "M. tuberculosis H37Rv growth inhibition with meropenem"
  IC90: "> 100 µM"
- COMPOUND: "O=C(/C=C/c1ccc([N+](=O)[O-])cc1)c1cccs1"
  TARGET_DESC: "M. tuberculosis H37Rv growth inhibition with meropenem"
  IC90: "12.2 µM"
- COMPOUND: "COc1ccc(-c2csc(/C=C/c3ccc4c(c3)OCO4)n2)cc1OC"
  TARGET_DESC: "M. tuberculosis H37Rv growth inhibition with meropenem"
  IC90: "> 100 µM"
- COMPOUND: "Cc1ccc(O)c(-c2cc(-c3ccccc3F)[nH]n2)c1"
  TARGET_DESC: "M. tuberculosis H37Rv growth inhibition with meropenem"
  IC90: "> 100 µM"
- COMPOUND: "Cc1cc(C)nc(SCC(=O)Nc2ccccc2[N+](=O)[O-])n1"
  TARGET_DESC: "M. tuberculosis H37Rv growth inhibition with meropenem"
  IC90: "> 100 µM"
- COMPOUND: "COC(=O)c1cc(OC)c(OC)cc1NC(=O)c1ccc(OC)c(OC)c1"
  TARGET_DESC: "M. tuberculosis H37Rv growth inhibition with meropenem"
  IC90: "> 100 µM"
- COMPOUND: "CCN(CC)c1ccc(C=N/C(C#N)=C(\\N)C#N)cc1"
  TARGET_DESC: "M. tuberculosis H37Rv growth inhibition with meropenem"
  IC90: "> 100 µM"
- COMPOUND: "NC(=O)CN1C(=O)C(O)(CC(=O)/C=C\\C=C\\c2ccccc2)c2ccccc21 (stereo not drawn)"
  TARGET_DESC: "M. tuberculosis H37Rv growth inhibition with meropenem"
  IC90: "> 100 µM"
- COMPOUND: "O=C(CCNc1ccccc1)c1cccc([N+](=O)[O-])c1"
  TARGET_DESC: "M. tuberculosis H37Rv growth inhibition with meropenem"
  IC90: "45.8 µM"
- COMPOUND: "O=C(COc1cccc2cccnc12)N/N=C/c1ccc(O)cc1"
  TARGET_DESC: "M. tuberculosis H37Rv growth inhibition with meropenem"
  IC90: "> 50 µM"
- COMPOUND: "COc1cc(NC(=O)c2cccc(Cl)c2)c(OC)cc1NC(=O)CN1CCCCC1"
  TARGET_DESC: "M. tuberculosis H37Rv growth inhibition with meropenem"
  IC90: "75.5 µM"
- COMPOUND: "CCC(C(=O)Nc1ccccc1N1CCCC1)c1ccccc1 (stereo not drawn)"
  TARGET_DESC: "M. tuberculosis H37Rv growth inhibition with meropenem"
  IC90: "> 100 µM"
- COMPOUND: "CCC1Nc2ncnc(N3CCN(c4ccccc4)CC3)c2N(Cc2ccc(Br)cc2)C1=O (stereo not drawn)"
  TARGET_DESC: "M. tuberculosis H37Rv growth inhibition with meropenem"
  IC90: "> 100 µM"
- COMPOUND: "COc1cccc(-c2nnn(CC(=O)Nc3cc(OC)c(NC(=O)c4ccco4)cc3OC)n2)c1"
  TARGET_DESC: "M. tuberculosis H37Rv growth inhibition with meropenem"
  IC90: "> 100 µM"
- COMPOUND: "CCOc1ccc(-c2cnc3n2CCC3)cc1"
  TARGET_DESC: "M. tuberculosis H37Rv growth inhibition with meropenem"
  IC90: "> 100 µM"
- COMPOUND: "COc1cc(NC(=O)c2ccc(CNc3c(N4CCCC4)c(=O)c3=O)cc2)cc(OC)c1OC"
  TARGET_DESC: "M. tuberculosis H37Rv growth inhibition with meropenem"
  IC90: "> 100 µM"
- COMPOUND: "CC(=O)Nc1scc(C)c1-c1nc2ccccc2s1"
  TARGET_DESC: "M. tuberculosis H37Rv growth inhibition with meropenem"
  IC90: "> 100 µM"
- COMPOUND: "c1ccc(CSc2nnc(-c3ccco3)o2)cc1"
  TARGET_DESC: "M. tuberculosis H37Rv growth inhibition with meropenem"
  IC90: "> 100 µM"
- COMPOUND: "CCOC(=O)c1c(NC(=O)C(=O)N/N=C/c2ccccc2OC)sc2c1CCCCC2"
  TARGET_DESC: "M. tuberculosis H37Rv growth inhibition with meropenem"
  IC90: "> 100 µM"
- COMPOUND: "Cc1ccc(S(=O)(=O)Nc2cccc3cccnc23)c([N+](=O)[O-])c1"
  TARGET_DESC: "M. tuberculosis H37Rv growth inhibition with meropenem"
  IC90: "4.7 µM"
- COMPOUND: "Cc1cc(C)cc(NC(=S)NN)c1"
  TARGET_DESC: "M. tuberculosis H37Rv growth inhibition with meropenem"
  IC90: "> 100 µM"
- COMPOUND: "CSc1ncccc1C(=O)Nc1nc2ccc(Oc3ccccc3)cc2s1"
  TARGET_DESC: "M. tuberculosis H37Rv growth inhibition with meropenem"
  IC90: "> 100 µM"
